- MEASUREMENT NOTES: qHTS assay to identify small molecule antagonists of the peroxisome proliferator-activated receptor gamma (PPARg) signaling pathway - cell viability counter screen (AID 743194); also: nearly all actives have a fitted effect of over 55% in size
- RUN CONDITIONS: PPARg-bla HEK293H viability, CellTiter-Glo luminescence, 17 h; co-treated with 50 nM rosiglitazone unless noted; series mostly up to 62.6 µM
Inconclusive results are not listed. Activity calls are given as the source filed them. Calls follow the shape of the dose curve; as a rule, active = well fitted cell-killing curve with a large enough effect in the repeat runs; inconclusive = weak or mixed curves, or effect the other way; inactive = no such curve, though single readings can be large or run the other way.
Outcomes: yes (1) (active), no (0) (inactive)

>>> df
                                   compound  class_label
0        c1ccc2cc3c(cc2c1)-c1cccc2cccc-3c12       no (0)
1  CC(Cc1ccc(C(C)(C)C)cc1)CN1C[C@@H](C)O[C@@H](C)C1 (some centres not stated)      yes (1)
2                          [Hg+2].[I-].[I-]      yes (1)
3  CCOC(=O)C1(c2ccccc2)CCN(CCC(C#N)(c2ccccc2)c2ccccc2)CC1       no (0)
4                             [CH3][Hg][Cl]      yes (1)
5  CCN(CC)C(=S)[S-].CCN(CC)C(=S)[S-].[Zn+2]      yes (1)
6                             CN(C)C1CSSSC1       no (0)

====

- ASSAY SYSTEM: Androgen receptor (Homo sapiens)
- MEASUREMENT NOTES: qHTS assay to identify small molecule agonists of the androgen receptor (AR) signaling pathway in the presence of an antagonist (AID 1259381); also: nearly all actives have a fitted effect of over 15% in size
- RUN CONDITIONS: MDA-kb2 MMTV-luciferase, AR agonist + nilutamide, 16 h; series mostly up to 92.4 µM
Active and inactive are the calls of the source. Calls come from the whole dose curve.
Outcomes: active, inactive

COMPOUND	CLASS LABEL
CCOc1cc(C(C)(C)C)ccc1C1COC(c2c(F)cccc2F)=N1 (configuration not stated)	inactive
O=[N+]([O-])c1ccc2ccc3cccc4ccc1c2c34	inactive
CC(C)C(=O)Cl	inactive
CNC(C)Cc1ccc2c(c1)OCO2 (configuration not stated)	inactive
CCOC(=O)c1ccccc1S(=O)(=O)NC(=O)Nc1nc(Cl)cc(OC)n1	inactive
C[C@]12Cc3nonc3C[C@@H]1CC[C@@H]1[C@@H]2CC[C@@]2(C)[C@H]1CC[C@]2(C)O	active
CC[C@H]1C[C@@H]2C[C@H]3c4[nH]c5ccc(OC)cc5c4CCN(C2)[C@@H]13	inactive
SCc1ccco1	inactive
CCc1ccccc1C	inactive
CN(CCCC(=O)c1cccnc1)N=O	inactive
CC(C)(C)OO	inactive
c1cc[c]([Sb]([c]2ccccc2)[c]2ccccc2)cc1	inactive
COc1cccc2c1C(=O)c1c(O)c3c(c(O)c1C2=O)C[C@@](O)(C(=O)CO)CC3OC1CC(N2CCOC(OC)C2)C(O)C(C)O1 (some centres not stated)	inactive
CC(=O)c1ccc(-c2ccccc2)cc1	inactive
CC(=O)C(Cl)(Cl)Cl	inactive
O=[N+]([O-])c1cc([N+](=O)[O-])c2ccccc2c1	inactive
C[C@@H]1CC[C@@]2(OC1)O[C@H]1[C@@H](O)[C@H]3[C@@H]4CC[C@H]5C[C@@H](O[C@@H]6O[C@H](CO)[C@H](O[C@@H]7O[C@H](CO)[C@@H](O)[C@H](O[C@@H]8OC[C@@H](O)[C@H](O)[C@H]8O)[C@H]7O[C@@H]7O[C@H](CO)[C@@H](O)[C@H](O[C@@H]8O[C@H](CO)[C@@H](O)[C@H](O)[C@H]8O)[C@H]7O)[C@H](O)[C@H]6O)[C@H](O)C[C@]5(C)[C@H]4CC[C@]3(C)[C@H]1[C@@H]2C	inactive
C=COCCCl	inactive
Clc1ccc(Oc2ccccc2)cc1	inactive
BrCC(Br)c1ccccc1 (configuration not stated)	inactive
CCCSP(=O)(OCC)SCCC	active
C=CC(=O)OCC(COC(=O)C=C)(COC(=O)C=C)COC(=O)C=C	inactive

====

- MEASUREMENT NOTES: qHTS assay to identify small molecule agonists of the RXR signaling pathway - cell viability counter screen (AID 1159529); also: nearly all actives have a fitted effect of over 50% in size
- RUN CONDITIONS: RXR-alpha-bla HEK293T viability, CellTiter-Glo, 16 h; series mostly up to 76.8 µM
- From the text: National Center for Advancing Translational Sciences [NCATS] NIH Chemical Genomics Center [NCGC] U.S. Environmental Protection Agency [EPA] National Institutes of Environmental Health Sciences [NIEHS] National Toxicology Program [NTP] U.S. Food and Drug Administration [FDA] The Retinoid X receptor (RXR), a nuclear hormone receptor expressed in liver, spleen, placenta, epidermis, central nervous system. […]
Records with an inconclusive call do not appear. Activity calls are given as the source filed them. The call rests on the fitted dose curve; in most records, active means well fitted cell-killing curve with a large enough effect in the repeat runs; inconclusive means weak or mixed curves, or effect the other way; inactive means no such curve, though single readings can be large or run the other way.
Outcomes: 1 (active), 0 (inactive)

>>> print(df.to_string())
                                    molecule  class_label
 0                   Oc1c(Cl)c(Cl)cc(Cl)c1Cl            1
 1                                    N#CCCO            0
 2        COP(=O)(OC)SCn1c(=O)oc2cc(Cl)cnc21            0
 3  Oc1ccc(C(c2ccc(O)cc2)(C(F)(F)F)C(F)(F)F)cc1            1
 4  CC1(C)[C@H](C(=O)O[C@H](C#N)c2cccc(Oc3ccccc3)c2)[C@@H]1/C=C(\Cl)C(F)(F)F            0
 5  CCc1nn(C)c(C(=O)NCc2ccc(C(C)(C)C)cc2)c1Cl            1
 6                          CC(C)OS(C)(=O)=O            0
 7                     COP(=O)(CCC(=O)NCO)OC            0
 8  CC(C)[C@H](C(=O)OC(C#N)c1cccc(Oc2ccccc2)c1)c1ccc(OC(F)F)cc1 (stereo partly drawn)            0
 9  CCC(C)(C)C(=O)OC1=C(c2ccc(Cl)cc2Cl)C(=O)OC12CCCCC2            0
10               CCCN(CCC)CCc1c[nH]c2ccccc12            0
11         COC[C@H](C)N(C(=O)CCl)c1c(C)csc1C            0
12                    COS(=O)(=O)c1ccc(C)cc1            0

====

- ASSAY SYSTEM: Nuclear receptor subfamily 1 group I member 3 (Homo sapiens)
- MEASUREMENT NOTES: qHTS assay to identify small molecule antagonists of the constitutive androstane receptor (CAR) signaling pathway (AID 1224838);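 also: HepG2 cells stably expressing hCAR with CYP2B6 luciferase reporter stimulated by CITCO; nearly all actives have a fitted effect of over 40% in size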
- RUN CONDITIONS: HepG2-CYP2B6-hCAR luciferase, CITCO-stimulated, 24 h; series mostly up to 92.4 µM
Inconclusive results are not listed. Calls of active or inactive are those of the source. Calls follow the shape of the dose curve; as a rule, active = well fitted inhibition curve with a large enough effect in the repeat runs; inconclusive = weak or mixed curves, or effect the other way; inactive = no such curve, though single readings can be large or run the other way.
Outcomes: active, inactive

COMPOUND	ASSAY SYSTEM	CLASS LABEL
CCCCOCN(C(=O)CCl)c1c(CC)cccc1CC	Nuclear receptor subfamily 1 group I member 3 (Homo sapiens)	inactive
CCCCCCCCCCCCCCC(Br)C(=O)O (configuration not stated)	Nuclear receptor subfamily 1 group I member 3 (Homo sapiens)	inactive
ClC(Cl)=C(Cl)Cl	Nuclear receptor subfamily 1 group I member 3 (Homo sapiens)	inactive
CCCN(CC)CC1COC2(CCC(C(C)(C)C)CC2)O1 (configuration not stated)	Nuclear receptor subfamily 1 group I member 3 (Homo sapiens)	inactive
CC(C)(C)C(O)/C(=C\c1ccc(Cl)cc1Cl)n1cncn1 (configuration not stated)	Nuclear receptor subfamily 1 group I member 3 (Homo sapiens)	inactive
Cc1cc(N=Nc2ccccc2C)ccc1N	Nuclear receptor subfamily 1 group I member 3 (Homo sapiens)	inactive
NC(=O)c1ccc(N)nc1	Nuclear receptor subfamily 1 group I member 3 (Homo sapiens)	inactive
BrC(Br)Br	Nuclear receptor subfamily 1 group I member 3 (Homo sapiens)	inactive
C[CH2][Hg][N]1C(=O)C2C(C1=O)C1(Cl)C(Cl)=C(Cl)C2(Cl)C1(Cl)Cl (configuration not stated)	Nuclear receptor subfamily 1 group I member 3 (Homo sapiens)	active
Clc1ccc(C(c2ccccc2Cl)C(Cl)(Cl)Cl)cc1 (configuration not stated)	Nuclear receptor subfamily 1 group I member 3 (Homo sapiens)	inactive
CCCOCC(=Nc1ccc(Cl)cc1C(F)(F)F)n1ccnc1	Nuclear receptor subfamily 1 group I member 3 (Homo sapiens)	inactive
CCCCCCCCc1ccc(O)cc1	Nuclear receptor subfamily 1 group I member 3 (Homo sapiens)	inactive
CC(C)(C)c1cc([N+](=O)[O-])cc(C(C)(C)C)c1O	Nuclear receptor subfamily 1 group I member 3 (Homo sapiens)	active
Nc1ccccc1C(=O)Oc1ccc2ccccc2c1	Nuclear receptor subfamily 1 group I member 3 (Homo sapiens)	inactive
N#CCCSCCC#N	Nuclear receptor subfamily 1 group I member 3 (Homo sapiens)	inactive
CC(C)OC(=O)C(O)(c1ccc(Cl)cc1)c1ccc(Cl)cc1	Nuclear receptor subfamily 1 group I member 3 (Homo sapiens)	inactive
O=C(CCCN1CCC2(CC1)C(=O)NCN2c1ccccc1)c1ccc(F)cc1	Nuclear receptor subfamily 1 group I member 3 (Homo sapiens)	active
CC(C)N1C(=O)N(c2ccccc2)CSC1=NC(C)(C)C	Nuclear receptor subfamily 1 group I member 3 (Homo sapiens)	inactive
Cc1c(Cl)c(=O)oc2cc(OP(=O)(OCCCl)OCCCl)ccc12	Nuclear receptor subfamily 1 group I member 3 (Homo sapiens)	inactive
OC(Cc1ccccc1Cl)(Cn1cncn1)C1(Cl)CC1 (configuration not stated)	Nuclear receptor subfamily 1 group I member 3 (Homo sapiens)	inactive
C[C@@H]1CC[C@@]2(OC1)O[C@H]1[C@@H](O)[C@H]3[C@@H]4CC[C@H]5C[C@@H](O[C@@H]6O[C@H](CO)[C@H](O[C@@H]7O[C@H](CO)[C@@H](O)[C@H](O[C@@H]8OC[C@@H](O)[C@H](O)[C@H]8O)[C@H]7O[C@@H]7O[C@H](CO)[C@@H](O)[C@H](O[C@@H]8O[C@H](CO)[C@@H](O)[C@H](O)[C@H]8O)[C@H]7O)[C@H](O)[C@H]6O)[C@H](O)C[C@]5(C)[C@H]4CC[C@]3(C)[C@H]1[C@@H]2C	Nuclear receptor subfamily 1 group I member 3 (Homo sapiens)	active
CC(C)Oc1cccc(NC(=O)c2ccccc2C(F)(F)F)c1	Nuclear receptor subfamily 1 group I member 3 (Homo sapiens)	inactive
